# System: ANGPTL3 gene
# protocol: Example 4: serum LDL in mice
# Format: in vivo, C57bl/6 mice
# assay.setup: Day 29; 1.0 mg/kg single SC injection on day 1; serum; n=3
In the oligonucleotide strings, read from the 5' end, every base follows the letter of its sugar. An asterisk marks phosphorothioate; unmarked linkages are phosphodiester. Other units and linkages are bracketed, terminal groups are in braces. A string of capitals states the bases alone. {NAG37} = tridentate N-acetyl-galactosamine targeting ligand, structure (NAG37)s; [invAb] = inverted abasic unit; m = 2'-O-methyl; f = 2'-fluoro
outcome.measure: Avg LDL, normalized to pre-treatment and control
Just the number.

Worked set:
Requested read-out: Avg LDL, normalized to pre-treatment and control. Entry: AD05487: RNAi agent duplex: antisense AM07233-AS, sense AM07232-SS (antisense mU*fA*mC*fUmGfAmUfCmAfAmAfUmAfUmGfUmUfGmAfG*mU; sense {NAG37}*[invAb]*mAmCmUmCmAmAmCmAfUfAfUmUmUmGmAmUmCmAmGmUmA*[invAb])
0.744

Requested read-out: Avg LDL, normalized to pre-treatment and control. Entry: AD05488: RNAi agent duplex: antisense AM07235-AS, sense AM07234-SS (antisense mU*fA*mC*fUmGfAmUfCmAfAmAfUmAfUmGfUmUfGmAfG*mC; sense {NAG37}*[invAb]*mGmCmUmCmAmAmCmAfUfAfUmUmUmGmAmUmCmAmGmUmA*[invAb])
0.801

Requested read-out: Avg LDL, normalized to pre-treatment and control. Entry: AD05418: RNAi agent duplex: antisense AM07159-AS, sense AM07158-SS (antisense mU*fU*mU*fGmAfAmUfUmAfAmUfGmUfCmCfAmUfGmGfG*mU; sense {NAG37}*[invAb]*mAmCmCmCmAmUmGmGfAfCfAmUmUmAmAmUmUmCmAmAmA*[invAb])
0.966

Next up:
Requested read-out: Avg LDL, normalized to pre-treatment and control. Entry: AD05308: RNAi agent duplex: antisense AM07003-AS, sense AM07002-SS (chain 1 mU*fG*mU*fUmGfAmAfUmUfAmAfUmGfUmCfCmAfUmGfG*mA; chain 2 {NAG37}*[invAb]*mUmCmCmAmUmGmGmAfCfAfUmUmAmAmUmUmCmAmAmCmA*[invAb])
0.897
